Data credit: the Human Domainome abundance scans (Beltran et al. 2025)

B1: POU domain, class 2, transcription factor 2, residues 200 to 269; numbered along this chain, P09086 (parent)
chain: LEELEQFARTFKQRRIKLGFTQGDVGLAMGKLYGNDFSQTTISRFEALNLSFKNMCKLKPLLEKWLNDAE

variants of: B1; assay: abundance fitness (aPCA) (normalised: wild type 0, dead -1); higher = more abundant; growth selection in yeast, the domain comes from the species named; conditions: Homo sapiens
observation.type: abundance fitness
// print number alone

* Q13V | -0.023
* E46Y | -0.994
* A8F | -0.708
* R15E | -0.897
* L32V | -0.098

// query Dear colleague, I am looking for the recorded abundance fitness of the following variant: E3V
// result -0.085

// query Another variant to check: T21Q
// result -0.205

// query Another variant to check: Q13H
// result -0.085
